tested.on: xanthine oxidase (Homo sapiens, UniProt P47989)
Sequence (P47989 whole entry, species assumed): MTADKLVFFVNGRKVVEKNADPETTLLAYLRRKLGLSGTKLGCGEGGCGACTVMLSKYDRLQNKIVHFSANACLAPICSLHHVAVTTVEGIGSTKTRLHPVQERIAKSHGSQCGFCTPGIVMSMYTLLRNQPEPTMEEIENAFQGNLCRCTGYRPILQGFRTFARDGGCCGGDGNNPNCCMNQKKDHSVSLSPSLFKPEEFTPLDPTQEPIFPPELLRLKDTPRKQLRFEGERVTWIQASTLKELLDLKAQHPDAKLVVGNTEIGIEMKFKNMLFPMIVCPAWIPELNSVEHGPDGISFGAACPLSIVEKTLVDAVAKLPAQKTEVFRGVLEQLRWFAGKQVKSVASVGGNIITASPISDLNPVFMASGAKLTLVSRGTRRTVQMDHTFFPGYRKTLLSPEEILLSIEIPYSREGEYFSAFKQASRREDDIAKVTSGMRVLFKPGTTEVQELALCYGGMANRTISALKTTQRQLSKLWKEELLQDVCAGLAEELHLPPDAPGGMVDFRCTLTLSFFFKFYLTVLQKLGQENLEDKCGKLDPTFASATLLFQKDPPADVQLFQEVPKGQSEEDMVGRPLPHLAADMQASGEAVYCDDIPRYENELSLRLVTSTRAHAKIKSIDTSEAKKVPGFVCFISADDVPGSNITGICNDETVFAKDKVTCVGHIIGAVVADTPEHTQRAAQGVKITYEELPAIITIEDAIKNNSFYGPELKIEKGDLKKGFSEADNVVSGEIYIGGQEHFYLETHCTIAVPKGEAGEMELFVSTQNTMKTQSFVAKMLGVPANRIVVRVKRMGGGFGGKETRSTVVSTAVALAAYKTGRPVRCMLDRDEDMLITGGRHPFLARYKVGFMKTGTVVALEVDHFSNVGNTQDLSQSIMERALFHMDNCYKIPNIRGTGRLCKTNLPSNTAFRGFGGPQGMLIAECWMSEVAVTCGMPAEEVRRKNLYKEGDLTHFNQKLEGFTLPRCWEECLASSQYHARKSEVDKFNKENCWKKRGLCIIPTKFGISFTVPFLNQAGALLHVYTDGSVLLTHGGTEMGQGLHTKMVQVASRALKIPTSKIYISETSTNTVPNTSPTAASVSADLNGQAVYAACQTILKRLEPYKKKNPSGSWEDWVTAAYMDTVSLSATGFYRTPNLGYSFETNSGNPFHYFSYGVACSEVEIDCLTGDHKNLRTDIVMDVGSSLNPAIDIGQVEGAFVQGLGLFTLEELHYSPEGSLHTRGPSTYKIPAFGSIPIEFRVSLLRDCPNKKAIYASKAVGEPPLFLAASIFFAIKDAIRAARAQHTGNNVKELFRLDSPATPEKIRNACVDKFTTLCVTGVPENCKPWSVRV
procedure.text: Xanthine oxidase inhibitory activity, 96 well plate, kinetic reading at 295 nm
Type: biochemical
measurement.parameters: compound concentration 100 μM
endpoint: PERCENT XANTHINE OXIDASE INHIBITION (%)
Write it as a number; the unit % goes unstated.

**Q:** PERCENT XANTHINE OXIDASE INHIBITION of c1cncc(-c2cccc(-c3nnn[nH]3)c2)c1 [HJ] on xanthine oxidase (Homo sapiens, UniProt P47989)?
**A:** 2

**Q:** PERCENT XANTHINE OXIDASE INHIBITION of Clc1cccc(-c2nnn[nH]2)c1 [FG] on xanthine oxidase (Homo sapiens, UniProt P47989)?
**A:** 34

**Q:** PERCENT XANTHINE OXIDASE INHIBITION of COc1cc(-c2nnn[nH]2)cc(OC)c1OC [HG] on xanthine oxidase (Homo sapiens, UniProt P47989)?
**A:** 22

**Q:** PERCENT XANTHINE OXIDASE INHIBITION of CCOc1ccc(-c2nnn[nH]2)cc1 [HD] on xanthine oxidase (Homo sapiens, UniProt P47989)?
**A:** 60

**Q:** PERCENT XANTHINE OXIDASE INHIBITION of O=C(O)c1ccc(-c2nnn[nH]2)cc1 [FY] on xanthine oxidase (Homo sapiens, UniProt P47989)?
**A:** 91

**Q:** PERCENT XANTHINE OXIDASE INHIBITION of O=[N+]([O-])c1cc(-c2nnn[nH]2)ccc1Cl [HF] on xanthine oxidase (Homo sapiens, UniProt P47989)?
**A:** 80

**Q:** PERCENT XANTHINE OXIDASE INHIBITION of O=C(OCC1CC1)c1ccc(-c2nnn[nH]2)cc1 [GB] on xanthine oxidase (Homo sapiens, UniProt P47989)?
**A:** 100

**Q:** PERCENT XANTHINE OXIDASE INHIBITION of O=C(/C=C/c1ccccc1)Nc1nnn[nH]1 [Compound HN] on xanthine oxidase (Homo sapiens, UniProt P47989)?
**A:** 42

**Q:** PERCENT XANTHINE OXIDASE INHIBITION of Fc1ccccc1-c1nnn[nH]1 [FP] on xanthine oxidase (Homo sapiens, UniProt P47989)?
**A:** 21

* * *

tested.on: UniProtKB P47989
procedure.text: Xanthine oxidase inhibitory activity, 96 well plate, kinetic reading at 295 nm
Assay type: biochemical
measurement.parameters: compound concentration 0.03 μM
endpoint: PERCENT XANTHINE OXIDASE INHIBITION (%)
Write it as a number; the unit % goes unstated.

**Q:** Form field: reported PERCENT XANTHINE OXIDASE INHIBITION of COc1ccc(NC(=O)c2ccc(-c3nnn[nH]3)cc2)cc1
**A:** 27

**Q:** Form field: reported PERCENT XANTHINE OXIDASE INHIBITION of CC(C)COc1ccc(-c2nnn[nH]2)cc1
**A:** 46

**Q:** Form field: reported PERCENT XANTHINE OXIDASE INHIBITION of O=C(Nc1ccc(-c2nnn[nH]2)cc1)c1ccccc1
**A:** 7

**Q:** Form field: reported PERCENT XANTHINE OXIDASE INHIBITION of O=C(O)c1ccc(NC(=O)c2ccc(-c3nnn[nH]3)cc2)cc1
**A:** 44

**Q:** Form field: reported PERCENT XANTHINE OXIDASE INHIBITION of O=C(O)Cc1ccc(NC(=O)c2ccc(-c3nnn[nH]3)cc2)cc1
**A:** 20

* * *

tested.on: UniProt:P47989
procedure.text: Xanthine oxidase inhibitory activity, 96 well plate, kinetic reading at 295 nm
Format: biochemical
measurement.parameters: compound concentration 10 μM
endpoint: PERCENT XANTHINE OXIDASE INHIBITION
Reply with the number, then its unit.

**Q:** PERCENT XANTHINE OXIDASE INHIBITION of CC(=O)c1ccc(-c2nnn[nH]2)cc1 on UniProt:P47989?
**A:** 54%

**Q:** PERCENT XANTHINE OXIDASE INHIBITION of CCOC(=O)c1ccc(-c2nnn[nH]2)cc1 on UniProt:P47989?
**A:** 92%

**Q:** PERCENT XANTHINE OXIDASE INHIBITION of O=C(O)c1ccc(-c2nnn[nH]2)cc1 on UniProt:P47989?
**A:** 56%

**Q:** PERCENT XANTHINE OXIDASE INHIBITION of COC(=O)c1ccc(-c2nnn[nH]2)cc1 on UniProt:P47989?
**A:** 82%

**Q:** PERCENT XANTHINE OXIDASE INHIBITION of Fc1ccc(-c2nnn[nH]2)cc1 on UniProt:P47989?
**A:** 19%

**Q:** PERCENT XANTHINE OXIDASE INHIBITION of COc1ccc(-c2nnn[nH]2)cc1 on UniProt:P47989?
**A:** 30%

**Q:** PERCENT XANTHINE OXIDASE INHIBITION of Cc1ccc(-c2nnn[nH]2)cc1 on UniProt:P47989?
**A:** 3%

**Q:** PERCENT XANTHINE OXIDASE INHIBITION of COc1ccc2cc(-c3nnn[nH]3)ccc2c1 on UniProt:P47989?
**A:** 56%

**Q:** PERCENT XANTHINE OXIDASE INHIBITION of CCCCCCOC(=O)c1ccc(-c2nnn[nH]2)cc1 on UniProt:P47989?
**A:** 79%

**Q:** PERCENT XANTHINE OXIDASE INHIBITION of Brc1ccc(-c2nnn[nH]2)cc1 on UniProt:P47989?
**A:** 21%

**Q:** PERCENT XANTHINE OXIDASE INHIBITION of CCCCOC(=O)c1ccc(-c2nnn[nH]2)cc1 on UniProt:P47989?
**A:** 95%

**Q:** PERCENT XANTHINE OXIDASE INHIBITION of FC(F)(F)Oc1ccc(-c2nnn[nH]2)cc1 on UniProt:P47989?
**A:** 14%

**Q:** PERCENT XANTHINE OXIDASE INHIBITION of O=C(OCc1ccccc1)c1ccc(-c2nnn[nH]2)cc1 on UniProt:P47989?
**A:** 100%

**Q:** PERCENT XANTHINE OXIDASE INHIBITION of Clc1ccc(-c2nnn[nH]2)cc1 on UniProt:P47989?
**A:** 27%

**Q:** PERCENT XANTHINE OXIDASE INHIBITION of O=C(/C=C/c1ccccc1)Nc1nnn[nH]1 on UniProt:P47989?
**A:** 13%

* * *

Assign PERCENT XANTHINE OXIDASE INHIBITION to each entry below.
tested.on: xanthine oxidase (Homo sapiens)
procedure.text: Xanthine oxidase inhibitory activity, 96 well plate, kinetic reading at 295 nm
Format: biochemical
measurement.parameters: compound concentration 1 μM
Write it as a number; the unit % goes unstated.

**Q:** Form field: reported PERCENT XANTHINE OXIDASE INHIBITION of CC(=O)c1cccc(NC(=O)c2ccc(-c3nnn[nH]3)cc2)c1 [Compound IA]
**A:** 90

**Q:** Form field: reported PERCENT XANTHINE OXIDASE INHIBITION of COc1cc(-c2nnn[nH]2)ccc1OCC(C)C [JD]
**A:** 28

**Q:** Form field: reported PERCENT XANTHINE OXIDASE INHIBITION of O=C(OCc1ccc(Br)cc1)c1ccc(-c2nnn[nH]2)cc1 [GU]
**A:** 94

**Q:** Form field: reported PERCENT XANTHINE OXIDASE INHIBITION of O=C(NC12CC3CC(CC(C3)C1)C2)c1ccc(-c2nnn[nH]2)cc1 [HT]
**A:** 62

**Q:** Form field: reported PERCENT XANTHINE OXIDASE INHIBITION of CC(C)COc1ccc(-c2nnn[nH]2)cc1C#N [Compound JE]
**A:** 82

**Q:** Form field: reported PERCENT XANTHINE OXIDASE INHIBITION of CC(C)OC(=O)c1ccc(-c2nnn[nH]2)cc1 [FZ]
**A:** 88

**Q:** Form field: reported PERCENT XANTHINE OXIDASE INHIBITION of O=C(Oc1ccccc1)c1ccc(-c2nnn[nH]2)cc1 [GC]
**A:** 100

**Q:** Form field: reported PERCENT XANTHINE OXIDASE INHIBITION of O=C(Nc1ccccc1)c1ccc(-c2nn[nH]n2)cc1 [Compound IC]
**A:** 100

**Q:** Form field: reported PERCENT XANTHINE OXIDASE INHIBITION of CCCCc1ccc(NC(=O)c2ccc(-c3nnn[nH]3)cc2)cc1 [IH]
**A:** 95

**Q:** Form field: reported PERCENT XANTHINE OXIDASE INHIBITION of O=C(Nc1ccc(F)cc1F)c1ccc(-c2nnn[nH]2)cc1 [IZ]
**A:** 89
